Data provenance is patent US20260372303A1.

# Test system: Zymoseptoria tritici strain Zt 38-02
# EXPERIMENT: In planta preventive efficacy on wheat cv. Alixan against Zymoseptoria tritici strain Zt 38-02
# Format: in vivo
# CONDITIONS: 21 dpi; % of length of 2nd leaf blade; preventive 24 h; rate N (g a.i./ha): ADF-16 100, penthiopyrad 200, metconazole 90, tebuconazole 250; control 84.3
Give measured Disease Severity Intensity for each item. Keep answers brief.

Entry CC1(C)CCC(Cc2ccc(Cl)cc2)C1(O)Cn1cncn1 (stereo not shown) , system Zymoseptoria tritici strain Zt 38-02: what Disease Severity Intensity was measured?
25.6 +/− 3.9d %

Entry `Cc1ccc(S(=O)(=O)n2cc(F)c(=N)n(C)c2=O)cc1` , system Zymoseptoria tritici strain Zt 38-02: what Disease Severity Intensity was measured?
0.0 +/− 0.0f^ %

Entry CC(C)(C)C(O)(CCc1ccc(Cl)cc1)Cn1cncn1 (stereo not shown) , system Zymoseptoria tritici strain Zt 38-02: what Disease Severity Intensity was measured?
9.3 +/− 1.9e %

Entry CC(C)CC(C)c1sccc1NC(=O)c1cn(C)nc1C(F)(F)F (stereo not shown) , system Zymoseptoria tritici strain Zt 38-02: what Disease Severity Intensity was measured?
10.9 +/− 2.1e %

---

# System: Zymoseptoria tritici strain Zt 20
# EXPERIMENT: In planta preventive efficacy on wheat cv. Alixan against Zymoseptoria tritici strain Zt 20
# Assay type: in vivo
# CONDITIONS: 21 dpi; % of length of 2nd leaf blade; preventive 24 h; rate N (g a.i./ha): ADF-16 100, penthiopyrad 200, metconazole 90, tebuconazole 250; control 77.2
Give measured Disease Severity Intensity for each item. Keep answers brief.

Given CC(C)CC(C)c1sccc1NC(=O)c1cn(C)nc1C(F)(F)F (stereo not shown) , state its recorded Disease Severity Intensity.
0.3 +/− 0.3e %

Given `Cc1ccc(S(=O)(=O)n2cc(F)c(=N)n(C)c2=O)cc1` , state its recorded Disease Severity Intensity.
0.0 +/− 0.0e %

Given CC(C)(C)C(O)(CCc1ccc(Cl)cc1)Cn1cncn1 (stereo not shown) , state its recorded Disease Severity Intensity.
0.6 +/− 0.5de %

Given CC1(C)CCC(Cc2ccc(Cl)cc2)C1(O)Cn1cncn1 (stereo not shown) , state its recorded Disease Severity Intensity.
1.9 +/− 0.7cd %

---

# Tested on: Zymoseptoria tritici strain Zt 19-52
# EXPERIMENT: In planta preventive efficacy on wheat cv. Alixan against Zymoseptoria tritici strain Zt 19-52
# Type: in vivo
# CONDITIONS: 21 dpi; % of length of 2nd leaf blade; preventive 24 h; rate N (g a.i./ha): ADF-16 100, penthiopyrad 200, metconazole 90, tebuconazole 250; control 81.7
READOUT_KIND: Disease Severity Intensity

Given CC(C)(C)C(O)(CCc1ccc(Cl)cc1)Cn1cncn1 (stereo not shown) [Tebuconazole] , state its recorded Disease Severity Intensity.
0.2 +/− 0.2c %

Given CC(C)CC(C)c1sccc1NC(=O)c1cn(C)nc1C(F)(F)F (stereo not shown) [Penthiopyrad] , state its recorded Disease Severity Intensity.
0.0 +/− 0.0c %

Given Cc1ccc(S(=O)(=O)n2cc(F)c(=N)n(C)c2=O)cc1 [ADF-16] , state its recorded Disease Severity Intensity.
0.4 +/− 0.4c %

Given CC1(C)CCC(Cc2ccc(Cl)cc2)C1(O)Cn1cncn1 (stereo not shown) [Metconazole] , state its recorded Disease Severity Intensity.
0.3 +/− 0.2c %
